Catalogue of pest or weed control at 70 g/ha values
System: Key Broadleaf Weed and Crop Species
procedure text: Post-emergent Test II herbicidal activity (Table 5)
Format: in vivo
conditions: post-emergence, 336 h; HELAN: sunflower (Helianthus annuus); 70 g ai/ha; post-emergent; 14 days after application; read-out: Visual Growth Reduction (%) 14 Days After Application HELAN

Solved cases (4 shown):
structure as smiles	reported
COC(=O)c1nc(-c2ccc(Br)cc2F)cc(N)c1Cl	85 to 94%
COc1c(N)nc(-c2cc(F)c(Br)cc2F)nc1C(=O)O	95 to 100%
COC(=O)c1nc(-c2ccc(Br)c(F)c2)c(C)c(N)c1Cl	95 to 100%
COC(=O)c1nc(-c2cc(F)ccc2F)c(F)c(N)c1Cl	85 to 94%

# lookup: Nc1cc(-c2cc(F)c(Br)cc2F)nc(C(=O)O)c1Cl on Key Broadleaf Weed and Crop Species, pest or weed control at 70 g/ha = 85 to 94%

###

System: Key Grass and Sedge Weeds as well as Grass Crops
procedure text: Post-emergent Test II herbicidal activity (Table 6)
Type: in vivo
conditions: post-emergence, 336 h, CYPES: yellow nutsedge (Cyperus esculentus), application rate 140 g ai/ha, read-out: Visual Growth Reduction (%) 14 Days After Application, CYPES
recorded endpoint: pest or weed control at 140 g/ha

Consider the worked cases shown below.
structure as smiles	recorded endpoint	reported
C#Cc1ccc(-c2nc(C(=O)OC)c(Cl)c(N)c2C)cc1F	pest or weed control at 140 g/ha	75 to 84%
C=Cc1c(C(=O)O)nc(-c2ccc(Br)cc2)c(F)c1N	pest or weed control at 140 g/ha	95 to 100%
COC(=O)c1nc(-c2cc(F)c(C(F)(F)F)cc2F)c(F)c(N)c1Cl	pest or weed control at 140 g/ha	95 to 100%

get_value(item= C=Cc1c(N)nc(-c2ccc(C(F)(F)F)c(F)c2)nc1C(=O)OC , readout=pest or weed control at 140 g/ha) returns 45 to 59%

COC(=O)c1nc(-c2cc(F)c(C#N)cc2F)c(F)c(N)c1Cl has a reported pest or weed control at 140 g/ha of 60 to 74%

Record C#Cc1ccc(-c2nc(N)c(OC)c(C(=O)O)n2)c(F)c1F , field pest or weed control at 140 g/ha: 0 to 29%

Noted for Nc1cc(-c2ccc(I)c(F)c2)nc(C(=O)O)c1Cl : its pest or weed control at 140 g/ha reads 45 to 59%

Short answer for COC(=O)c1nc(-c2cc(F)c(C#N)cc2F)nc(N)c1OC : pest or weed control at 140 g/ha was 0 to 29%

Looking up C#Cc1ccc(-c2nc(C(=O)O)c(C=C)c(N)c2F)cc1 , I found its pest or weed control at 140 g/ha recorded as 95 to 100%

COC(=O)c1nc(-c2ccc(OC(F)F)cc2)c(C)c(N)c1Cl yielded pest or weed control at 140 g/ha of 0 to 29%

For record COC(=O)c1nc(-c2ccc(I)cc2)c(Cl)c(N)c1Cl the listed pest or weed control at 140 g/ha is 95 to 100%

Lookup result for COC(=O)c1nc(-c2ccc(C#N)cc2)c(Cl)c(N)c1Cl ; measured pest or weed control at 140 g/ha: 30 to 44%

pest or weed control at 140 g/ha for Nc1c(Cl)c(C(=O)O)nc(-c2ccc(I)c(F)c2)c1Cl is 45 to 59%

pest or weed control at 140 g/ha reported for this compound COc1c(N)nc(-c2ccc(Br)c(F)c2F)nc1C(=O)O : 95 to 100%

For this compound ( N#Cc1ccc(-c2nc(C(=O)O)c(Cl)c(N)c2Cl)cc1 ), measured pest or weed control at 140 g/ha is 0 to 29%

pest or weed control at 140 g/ha reported for this compound Nc1c(F)c(-c2cc(F)c(Br)cc2F)nc(C(=O)O)c1Cl : 95 to 100%

Form field pest or weed control at 140 g/ha, entry C=Cc1c(N)nc(-c2ccc(I)cc2)nc1C(=O)O : 45 to 59%

Noted for COC(=O)c1nc(-c2ccc(C#N)cc2F)c(F)c(N)c1Cl : its pest or weed control at 140 g/ha reads 45 to 59%

Sure, the documented pest or weed control at 140 g/ha for C#Cc1ccc(-c2cc(N)c(Cl)c(C(=O)O)n2)cc1 is 0 to 29%
